METHOD_NOTES: protein stability index of a GFP-peptide fusion (yeast GPS) (PSI 1-4); higher = more stable; sorted into four equal gates, so the index is relative within each strain
CONDITION_PARAMETERS: san1∆
Assign criterion met to entries whose protein stability index meets or exceeds 3; assign criterion not met to the rest.

INSERT INTO results (construct_sequence, assigned_class) VALUES
  ('LSDNAKTLHSQMMSKGI [RPC34]', 'criterion met'),
  ('RIHAKNFEAALFAKSSS [GAL11]', 'criterion not met'),
  ('PRSPGRSPTRRLELLQL [SMC4]', 'criterion not met'),
  ('WLAEKFQKETNMKVTIL [PRP28]', 'criterion met'),
  ('TAVATLLKELSKNAQFI [SMC3]', 'criterion not met');
